- Experimental System: Genome polyprotein (dengue virus type 2) (UniProt P29990)
- Condition Notes: Thailand/16681/1984, Concentration 50.0 uM, Number of replicates 1.0
Result Type: inhibition
Number plus unit, in that order.

# inhibition (compound: Clc1snnc1CN1CCC(c2nc3ccccc3o2)CC1 ) is -8.6%

# inhibition (compound: O=C(NCc1ccco1)c1csc(Br)c1 ) is -4.81%

# inhibition (compound: O=C(O)c1sc2cccnc2c1Br ) is -8.71%

# inhibition (compound: Brc1ccsc1CSc1cnn[nH]1 ) is -4.71%

# inhibition (compound: Cn1c(Sc2nc3ccccc3o2)nc2sccc2c1=O ) is -1.81%

# inhibition (compound: c1csc(-c2nnc(Sc3ncnc4sccc34)o2)c1 ) is -7.64%

# inhibition (compound: O=S(=O)(c1cccs1)N1CCN(CC=Cc2ccccc2)CC1 ) is -7.46%

# inhibition (compound: Brc1cccc2cn(Cc3ncccn3)nc12 ) is -7.17%

# inhibition (compound: COCc1nn(CC#Cc2ccc(Cl)cc2)c(=O)o1 ) is -7.03%

# inhibition (compound: O=S(=O)(CCOc1ccccc1)c1nccs1 ) is -5.02%

# inhibition (compound: O=c1ccn(Cc2cc(=O)n3ccccc3n2)c2ccsc12 ) is -1.76%

# inhibition (compound: O=c1ccccn1-c1ncc(Br)cn1 ) is -2.83%

# inhibition (compound: Cc1nnc(CSc2ncnc3sccc23)o1 ) is 8.23%

# inhibition (compound: O=c1[nH]c(CSc2ccccc2Cl)nc2ccsc12 ) is -5.28%

# inhibition (compound: Cn1ncnc1Sc1nc(C2CCCC2)ns1 ) is -3.66%

# inhibition (compound: Brc1nc(Br)n(Cc2cscn2)n1 ) is -6.97%

# inhibition (compound: O=C(O)c1c(Br)sc2nnsc12 ) is -3.57%

# inhibition (compound: N#Cc1ccc(OCCn2nnn(-c3ccccc3)c2=O)cc1 ) is -7.79%

# inhibition (compound: Brc1cnn(C2CCN(Cc3csnn3)CC2)c1 ) is -3.22%

# inhibition (compound: c1ccc(C2CCN(Cc3ccc4nccnc4c3)CC2)nc1 ) is -8.13%

# inhibition (compound: COC(=O)c1cc2scc(Br)c2[nH]1 ) is -5.44%

# inhibition (compound: O=C(NCc1nccs1)c1sccc1Cl ) is 0.507%

# inhibition (compound: O=c1ccc(-n2cncn2)nn1CC=Cc1ccccc1 ) is -6.72%

# inhibition (compound: O=c1c2cccn2cnn1Cc1cnc(Cl)s1 ) is -5.2%

# inhibition (compound: [O-][S@@+](Cc1ncccn1)c1ncccc1Br ) is -6.39%

# inhibition (compound: Cc1sc2nc(-c3cccs3)[nH]c(=O)c2c1C ) is -5.01%

# inhibition (compound: NC(=O)c1ccc(Cn2nnc(C=Cc3ccccc3)n2)cc1 ) is -4.9%

# inhibition (compound: c1nnc(SCCCSc2nncs2)s1 ) is -6.11%

----------
Please respond with reported inhibition for every item in the list.
- Experimental System: Genome polyprotein (dengue virus type 2)
- Condition Notes: Thailand/16681/1984, Concentration 100.0 uM, Number of replicates 1.0
Expressed in %, but write only the number.

# inhibition (compound: O=C(NCc1ccco1)c1csc(Br)c1 ) is 6.83

# inhibition (compound: Clc1snnc1CN1CCC(c2nc3ccccc3o2)CC1 ) is 2.94

# inhibition (compound: O=S(=O)(CCOc1ccccc1)c1nccs1 ) is -2.8

# inhibition (compound: c1nnc(SCCCSc2nncs2)s1 ) is -7.13

# inhibition (compound: Cc1sc2nc(-c3cccs3)[nH]c(=O)c2c1C ) is 0.922

# inhibition (compound: O=c1[nH]c(CSc2ccccc2Cl)nc2ccsc12 ) is 18

# inhibition (compound: O=c1c2ccccc2ncn1CCCn1cnc2ccccc2c1=O ) is 4.08

# inhibition (compound: Brc1cccc2cn(Cc3ncccn3)nc12 ) is 6.27

# inhibition (compound: O=C(NCc1nccs1)c1sccc1Cl ) is 4.39

# inhibition (compound: [O-][S@@+](Cc1ncccn1)c1ncccc1Br ) is 2.18

# inhibition (compound: FC(F)(F)c1nc(CNCc2cocn2)cs1 ) is 1.67

# inhibition (compound: N#Cc1csc(CSc2nnc(C(F)(F)F)s2)n1 ) is -9.01

# inhibition (compound: Cn1c(Sc2nc3ccccc3o2)nc2sccc2c1=O ) is 6.37

Data credit: ChEMBL document CHEMBL5606460
